molecular target: Heartland virus (HRTV) nucleocapsid (N) protein (Heartland virus (HRTV)); assay: ELISA, purified HRTV coated on the plate, MAb titrated
readout_type: ELISA endpoint titer

1) MAb 2BB7 (antibody, V domains shown) VH: EVQLQQSGPDLVKPGASMKISCKASGYSFTAYTMNWVKQSHGKNLEWIGLISPYNGGTSYNQKFKGKATLTVDKSSSTAYMELLSLTSEDSAVYYCARQIGPYFDHWGQGTTLTVSS VL: IVMTQTTPSSMYASLGERVTITCKASQDIKSSFSWFQQKPGKSPKTLIYRASRLVDGVPSRFSGSGSGQDSSLTISSLEYEDMGIYYCLQCDEFPYTFGGGTKLEIK	24.4 ng/mL
2) MAb 2AG8 (antibody, V domains shown) VH: VKLEESGAELVRSGASLKMSCKASGYTFTSYNLHWVKQTPGQGLEWIGYIFPGNGGTAYNEKFKGKATLTADTSSSTAYMQISSLTSEDSAVYFCARGGPYYALDYWGQGTSVTVSS VL: DIVMTQSPASLSASVGETVTITCRTSGNIHTYLAWYQHKQGKSPQLLVYYAKTLADGVPSRFSGSGSGTQYSLKINSLQPEDFGSYYCQHFWSNPRTFGGGTKLEIKR	0.381 ng/mL

Input MAb 2BB5 (antibody, V domains shown) VH: EVQLEESGGGLVQPGGSMKLSCVASGFTFSNYWMNWVRQSPEKGLEWVAEVRLNSNNYATHYAESVKGRFTISRDDSKSSVYLQMSNLRSEDTGIYYCSTDYYGYAMDYWGQGTSVTVSS VL: DIVMTQTPSIMSASPGEKVTITCSASSNVNYMHWFQQKPGTSPKLWIYSTSNLASGVPARFSGSGSGTSYSLTISRMEAEDAATYYCQQRSNYPPTFGAGTKLELK . Output ELISA endpoint titer: 0.156 ng/mL
